TEST TARGET: 5-hydroxytryptamine receptor 1A (Homo sapiens)
TEST: Agonist activity at 5HT1A receptor expressed in HEK293 cells by [S35]GTPgammaS binding assay relative to 8-OH-DPAT
Assay type: functional, cell-based
Design: concentration or dose not given beside the values
MEASUREMENT NAME: Activity

Which measured Activity belongs to CCCCCCCCC[C@H](O)CC(=O)CCc1ccc(O)c(OC)c1 , tested on 5-hydroxytryptamine receptor 1A (Homo sapiens)?
> 10%

Which measured Activity belongs to CCCCCCCCC/C=C/C(=O)CCc1ccc(O)c(OC)c1 , tested on 5-hydroxytryptamine receptor 1A (Homo sapiens)?
> 20%

Which measured Activity belongs to NCCc1c[nH]c2ccc(O)cc12 , tested on 5-hydroxytryptamine receptor 1A (Homo sapiens)?
100%

Which measured Activity belongs to CCCCCC(=O)/C=C(O)/C=C/c1ccc(O)c(OC)c1 , tested on 5-hydroxytryptamine receptor 1A (Homo sapiens)?
> 20%

Which measured Activity belongs to CCCCCCCC(O)CCc1ccc(O)c(OC)c1 (stereo not given) , tested on 5-hydroxytryptamine receptor 1A (Homo sapiens)?
> 10%

* * *

TEST TARGET: 5-hydroxytryptamine receptor 1A (Homo sapiens)
Sequence (whole entry): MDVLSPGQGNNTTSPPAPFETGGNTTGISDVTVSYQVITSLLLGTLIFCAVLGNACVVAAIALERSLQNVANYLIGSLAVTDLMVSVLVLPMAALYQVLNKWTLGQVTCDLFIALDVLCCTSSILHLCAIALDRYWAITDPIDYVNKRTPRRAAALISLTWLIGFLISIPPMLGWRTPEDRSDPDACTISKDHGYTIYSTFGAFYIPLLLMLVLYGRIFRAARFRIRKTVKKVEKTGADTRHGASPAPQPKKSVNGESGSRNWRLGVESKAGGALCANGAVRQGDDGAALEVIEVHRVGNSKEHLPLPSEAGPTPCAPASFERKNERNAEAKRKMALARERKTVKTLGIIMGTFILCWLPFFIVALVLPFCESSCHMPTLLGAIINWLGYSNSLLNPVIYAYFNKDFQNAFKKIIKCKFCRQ
TEST: Antagonist activity at 5HT1A receptor expressed in HEK293 cells assessed as inhibition of serotonin-induced [S35]GTPgammaS binding by scintillation counting
Assay type: functional, cell-based
Activity calls are given as the source filed them. The calls are words filed in the database; no cut-off is given here.
MEASUREMENT NAME: Activity

[
  {
    "SMILES INPUT": "CCCCCCCCC[C@H](O)CC(=O)CCc1ccc(O)c(OC)c1",
    "RECORDED RESULT": "inactive"
  },
  {
    "SMILES INPUT": "CCCCCCC[C@H](O)CC(=O)CCc1ccc(O)c(OC)c1",
    "RECORDED RESULT": "inactive"
  },
  {
    "SMILES INPUT": "CCCCCCCCC/C(O)=C/C(=O)/C=C/c1ccc(O)c(OC)c1",
    "RECORDED RESULT": "inactive"
  }
]

* * *

TEST TARGET: 5-hydroxytryptamine receptor 1A (Homo sapiens)
TEST: Displacement of [3H]8-OH-DPAT from 5HT1A receptor expressed in HEK293 cells at 25 ug/ml after 2 hrs by liquid scintillation counting
Assay type: cell-based
I'd appreciate it if you could supply Activity values for the items below.

Activity lookup needed for CCCCC[C@H](O)CC(=O)CCc1ccc(O)c(OC)c1 , thanks.
> 50%

Activity lookup needed for CCCCCC(=O)/C=C(O)/C=C/c1ccc(O)c(OC)c1 , thanks.
> 50%

Activity lookup needed for CCCCCCCCC/C(O)=C/C(=O)/C=C/c1ccc(O)c(OC)c1 , thanks.
> 50%
